Target: α6β2δ GABAa receptors (Homo sapiens, UniProt O14764+P47870+Q16445)
Construct: expressed in transfected cells
Sequence (Q16445 20-453): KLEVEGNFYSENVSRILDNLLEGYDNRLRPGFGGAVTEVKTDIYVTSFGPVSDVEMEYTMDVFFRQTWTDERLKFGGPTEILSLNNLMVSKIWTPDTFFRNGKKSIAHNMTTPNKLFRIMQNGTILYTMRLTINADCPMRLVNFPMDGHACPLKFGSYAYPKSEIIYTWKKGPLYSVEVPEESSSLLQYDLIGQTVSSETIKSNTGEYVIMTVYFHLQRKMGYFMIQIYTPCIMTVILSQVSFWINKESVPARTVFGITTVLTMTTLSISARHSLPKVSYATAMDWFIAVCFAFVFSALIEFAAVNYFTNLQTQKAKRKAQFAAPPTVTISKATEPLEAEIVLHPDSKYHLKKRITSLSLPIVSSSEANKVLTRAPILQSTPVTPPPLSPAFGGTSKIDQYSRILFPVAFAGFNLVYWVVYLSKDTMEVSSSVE
Sequence (P47870 25-512 limits assumed): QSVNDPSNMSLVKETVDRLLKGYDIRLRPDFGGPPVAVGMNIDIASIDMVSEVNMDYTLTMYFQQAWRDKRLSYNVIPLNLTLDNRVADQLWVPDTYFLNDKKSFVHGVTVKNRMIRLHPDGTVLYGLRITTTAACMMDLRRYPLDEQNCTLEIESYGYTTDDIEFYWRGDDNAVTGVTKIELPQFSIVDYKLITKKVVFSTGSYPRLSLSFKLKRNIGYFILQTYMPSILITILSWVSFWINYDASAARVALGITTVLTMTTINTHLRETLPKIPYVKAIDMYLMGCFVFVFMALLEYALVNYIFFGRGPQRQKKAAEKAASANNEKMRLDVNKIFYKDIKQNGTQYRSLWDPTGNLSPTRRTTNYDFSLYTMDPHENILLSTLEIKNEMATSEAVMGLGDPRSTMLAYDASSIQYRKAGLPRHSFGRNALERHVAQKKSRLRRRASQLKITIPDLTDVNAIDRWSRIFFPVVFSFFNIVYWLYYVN
Sequence (O14764 25-452): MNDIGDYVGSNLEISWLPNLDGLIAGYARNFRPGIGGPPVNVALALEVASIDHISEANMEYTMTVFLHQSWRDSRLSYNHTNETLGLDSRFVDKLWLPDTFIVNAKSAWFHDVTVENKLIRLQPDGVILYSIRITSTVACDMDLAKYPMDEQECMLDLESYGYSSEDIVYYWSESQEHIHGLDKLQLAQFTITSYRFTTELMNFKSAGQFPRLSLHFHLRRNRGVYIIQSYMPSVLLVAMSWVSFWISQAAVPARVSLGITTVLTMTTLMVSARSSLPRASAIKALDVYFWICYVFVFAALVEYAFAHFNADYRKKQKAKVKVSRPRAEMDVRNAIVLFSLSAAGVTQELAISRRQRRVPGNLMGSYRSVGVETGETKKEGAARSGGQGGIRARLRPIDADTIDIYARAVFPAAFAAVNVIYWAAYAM
Assay: Agonist activity of ketamine analogues on GABAa receptors (potentiation of GABA current, oocyte expression system)
Assay type: cell-based
Conditions: Conc. 20 (μM)
Catalogue of IAverage = (IGABA + Drug/IGABA) 100 readings, one per entry.
recorded-metric: IAverage = (IGABA + Drug/IGABA) 100 (n. amp)

>>> recorded_result("CNC1(c2ccccc2Cl)CCCCC1O (stereo not shown) [Hydroxy]")
100
>>> recorded_result("CNC1(c2ccccc2Cl)CCCCC1=O (stereo not shown) [Ketamine, reference compound]")
157.1
>>> recorded_result("CNC1(c2ccccc2Cl)CCCC/C1=N\\O (stereo not shown) [Oxime (Disalt)]")
239
>>> recorded_result("CNC1(c2ccccc2Cl)CCCC/C1=N\\O (stereo not shown) [Oxime (Monosalt)]")
193.746
